For each entry below, report its pEC50 value.
Molecular target: Edg-1/S1P1 receptor (Homo sapiens)
Assay: In vitro cell based receptor activation assay - Transfluor assay (assay I or II; beta-arrestin GFP relocalization after S1P stimulation)
Conditions: one or the other of the two Transfluor assays; Edg-1 Transfluor U2OS cells, S1P ligand
Numbers only, as −log10 of the molar value.

Here's what some known entries look like.
CC(NS(=O)(=O)c1ccc(Cl)cc1)c1nc2ccccc2n1CC1CC1 (stereo not shown) [Example 18] :: 6.05
CC(NS(=O)(=O)c1ccc(Cl)cc1)c1nc2ccccc2n1C1CC1 (stereo not shown) [Example 21] :: 5.29

Proceeding to the next molecule to report its pEC50.
Item under review: CC(C)Cn1c(C(C)NS(=O)(=O)c2ccc(Cl)cc2)nc2ccccc21 (stereo not shown) [Example 19] . Reported pEC50? 4.99

---

Target: Edg-1/S1P1 receptor (Homo sapiens, UniProt P21453)
Construct: expressed in transfected cells; host or cells: human osteogenic sarcoma U2OS cells: Edg-1 Transfluor U2OS WT Clone #37 (assay I), Edg-1 Transfluor U2OS Clone #3 (assay II)
Sequence (P21453 whole entry): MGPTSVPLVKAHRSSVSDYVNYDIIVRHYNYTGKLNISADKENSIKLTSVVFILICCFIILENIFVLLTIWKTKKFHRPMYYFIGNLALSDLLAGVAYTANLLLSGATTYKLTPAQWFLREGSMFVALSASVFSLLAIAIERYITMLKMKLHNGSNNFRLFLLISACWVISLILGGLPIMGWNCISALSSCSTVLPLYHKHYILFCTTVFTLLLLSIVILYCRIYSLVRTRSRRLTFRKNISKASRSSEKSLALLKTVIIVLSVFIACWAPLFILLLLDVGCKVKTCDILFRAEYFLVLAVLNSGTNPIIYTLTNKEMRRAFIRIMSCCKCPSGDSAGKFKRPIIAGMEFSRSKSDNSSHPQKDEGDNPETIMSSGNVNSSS
Assay: In vitro cell based receptor activation assay - Transfluor assay (assay I or II; beta-arrestin GFP relocalization after S1P stimulation)
Conditions: at 3.70 μM (titrated from top concentration 100 μM)
measurement type: inhibition at 3.7 µM (%)
Answers are plain numbers, in %.

CCn1c([C@@H](C)NS(=O)(=O)c2ccc(Cl)cc2)nc2ccc(CN(C)C)cc21 :: 30.4

Hey, quick one: what's inhibition at 3.7 µM for each of these?
1. CCn1c(C(NS(=O)(=O)c2ccc(Cl)cc2)C(C)C)nc2ccccc21 (centres unmarked)
2. CCn1c([C@@H](C)NS(=O)(=O)c2ccc(Cl)cc2)nc2cccc(C)c21
3. CCn1c([C@@H](C)NS(=O)(=O)c2ccc(Cl)cc2)nc2cc(Cl)c(Cl)cc21
4. CCn1c([C@@H](C)NS(=O)(=O)c2ccc(Cl)cc2)nc2cc3c(cc21)OCCO3
5. CCn1c([C@@H](C)NS(=O)(=O)c2ccc(Cl)cc2)nc2cc(C3CC3)ccc21

1: 59; 2: 94.6; 3: 63.5; 4: 52.2; 5: 59.3

Fill in inhibition at 3.7 µM for each of the 2 compounds listed.
1. CCn1c([C@@H](C)NS(=O)(=O)c2ccc(NC(C)=O)c(C)c2)nc2ccc(C(F)(F)F)cc21
2. CCn1c(C(C)NS(=O)(=O)c2ccc(Cl)cc2)nc2ccc(Cl)cc21 (centres unmarked)

21.8
89.9

---

Target: Edg-1/S1P1 receptor (Homo sapiens, UniProt P21453)
Construct: expressed in transfected cells; host or cells: human osteogenic sarcoma U2OS cells: Edg-1 Transfluor U2OS WT Clone #37 (assay I), Edg-1 Transfluor U2OS Clone #3 (assay II)
Experiment: In vitro cell based receptor activation assay - Transfluor assay (assay I or II; beta-arrestin GFP relocalization after S1P stimulation)
Conditions: at 3.70 μM (titrated from top concentration 100 μM)
measurement type: inhibition at 3.7 µM (%)
Answers are plain numbers, in %.

Consider the following illustrative entries.
CCn1c(C(C)NS(=O)(=O)c2ccc(Cl)cc2)nc2cnc(C(F)(F)F)nc21 (stereo not shown) [Example 96] :: 81.7
CC(NS(=O)(=O)c1ccc(Cl)cc1)c1nc2ccccc2n1C1CC1 (stereo not shown) [Example 21] :: 39
CCn1c(C(C)NS(=O)(=O)c2ccc(Cl)cc2)nc2ccncc21 (stereo not shown) [Example 14] :: 72.8
CCn1c([C@@H](C)NS(=O)(=O)C2CC2)nc2ccc(C(F)(F)F)cc21 [Example 38] :: 35.1
CCn1c([C@@H](C)NS(=O)(=O)c2ccc(Cl)cc2)nc2cc(OC)c(OC)cc21 [Example 61] :: 54.9

Hi, could you look up inhibition at 3.7 µM for each item in my list?
1. CCn1c([C@@H](C)NS(=O)(=O)c2ccc(Cl)c3cccnc23)nc2ccc(C(F)(F)F)cc21 [Example 52]
2. CCn1c(C(C)NS(=O)(=O)c2ccc(Cl)cc2)nc2cccnc21 (stereo not shown) [Example 15]
3. CCn1c([C@@H](C)NS(=O)(=O)c2ccc(Cl)cc2)nc2cc(Cl)cc(Cl)c21 [Example 58]
4. CCn1c([C@@H](C)NS(=O)(=O)c2cn(C)c(C)n2)nc2ccc(C(F)(F)F)cc21 [Example 42]
5. CCn1c([C@@H](C)NS(=O)(=O)c2c(C)noc2C)nc2ccc(C(F)(F)F)cc21 [Example 37]

89
61.5
78.2
41.3
58.3

Reference source: patent US20100029643A1
